Test system: Danio rerio larvae Tg(actc1b:ZsGreen-LC3), 3 dpf
protocol: LC3 puncta relative area vs vehicle, without NH4Cl (log2 fold change); higher = more autophagosomes
test-conditions: 10 µM; treatment time 16 h; NH4Cl: none
Where a name gives a salt, the structure may show the parent alone.
quantity-measured: LC3 puncta (log2)

{"compound": "CN(C)CCCn1cc(C2=C(c3c[nH]c4ccccc34)C(=O)NC2=O)c2ccccc21", "reported-value": 0.584}
{"compound": "O=[N+]([O-])c1cccc2cn[nH]c12", "reported-value": 0.16}
{"compound": "Fc1ccc(C(c2ccc(F)cc2)N2CCN(C/C=C/c3ccccc3)CC2)cc1 [Flunarizine dihydrochloride]", "reported-value": 0.219}
{"compound": "O=C(/C=C/c1ccc(O)c(O)c1)O[C@H](Cc1ccc(O)c(O)c1)C(=O)O", "reported-value": 0.0606}
